Numbers sourced from patent US5635593A.

Target: BK1 receptor (Oryctolagus cuniculus)
Sequence (P48748 1-352): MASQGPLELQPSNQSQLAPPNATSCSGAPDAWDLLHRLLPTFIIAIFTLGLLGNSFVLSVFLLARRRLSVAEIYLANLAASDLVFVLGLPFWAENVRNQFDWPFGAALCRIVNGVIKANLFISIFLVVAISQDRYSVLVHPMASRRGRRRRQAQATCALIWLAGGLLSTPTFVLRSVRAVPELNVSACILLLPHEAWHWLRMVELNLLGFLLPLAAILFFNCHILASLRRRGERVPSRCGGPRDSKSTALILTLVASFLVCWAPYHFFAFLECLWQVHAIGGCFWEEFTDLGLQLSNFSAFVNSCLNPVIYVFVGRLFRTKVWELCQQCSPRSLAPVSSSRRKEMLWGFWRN
Experiment: rabbit aorta in vitro, reversal of des-Arg^9 -BK contraction
Set-up: on rabbit aorta (BK1 -receptor) in vitro; from tissue; host or cells: rabbit aorta
Conditions: negative log of molar concentration causing 50% reversal of des-Arg^9 -BK (10^-7 M) contraction
Method: Each antagonist was then added, in a cumulative fashion, on top of the contraction and the negative log of the molar concentration of the antagonist causing a 50% reversal (IC50) of the […] measured.
Peptide text beside a SMILES is read from it.
Measured parameter: BK1 rabbit aorta IC50
// keep it numeric: no unit symbol after the value

Here is how some compounds turned out for BK1 rabbit aorta IC50.
>>> measured_value("CC(C)C[C@H](NC(=O)[C@@H](Cc1ccccc1)NC(=O)[C@H](CO)NC(=O)[C@H](Cc1ccccc1)NC(=O)CNC(=O)[C@@H]1C[C@@H](O)CN1C(=O)[C@@H]1CCCN1C(=O)[C@H](CS)NC(=O)[C@H](N)CCCNC(=N)N)C(=O)O [CP-0376, D R--C--P--J--G--F--S--D F--L] (HELM PEPTIDE1{[dR].C.P.[Hyp].G.F.S.[dF].L}$$$$V2.0; N-terminus and C-terminus assumed)")
4.9
>>> measured_value("CC(C)C[C@H](NC(=O)[C@@H](Cc1ccccc1)NC(=O)[C@H](CS)NC(=O)[C@H](Cc1ccccc1)NC(=O)CNC(=O)[C@@H]1C[C@@H](O)CN1C(=O)[C@@H]1CCCN1C(=O)[C@H](CCCNC(=N)N)NC(=O)[C@H](N)CCCNC(=N)N)C(=O)O [CP-0254, D R--R--P--J--G--F--C--D F--L] (HELM PEPTIDE1{[dR].R.P.[Hyp].G.F.C.[dF].L}$$$$V2.0; N-terminus and C-terminus assumed)")
6.4

Now for a further compound.
# lookup: BK1 rabbit aorta IC50 of N=C(N)NCCC[C@@H](N)C(=O)N[C@@H](CS)C(=O)N1CCC[C@H]1C(=O)N1C[C@H](O)C[C@H]1C(=O)NCC(=O)N[C@@H](Cc1ccccc1)C(=O)N[C@@H](CO)C(=O)N1Cc2ccccc2C[C@@H]1C(=O)N1[C@H](C(=O)O)C[C@@H]2CCCC[C@@H]21 [CP-0363, D R--C--P--J--G--F--S--D Tic--Oic] (HELM PEPTIDE1{[dR].C.P.[Hyp].G.F.S.[O=C([C@H]1Cc2ccccc2CN1[*:1])[*:2]].[O=C(O)[C@@H]1C[C@@H]2CCCC[C@@H]2N1[*:1]]}$$$$V2.0; N-terminus and C-terminus assumed) 6.2
